tested on: DMS-114; assay: NCI tumour cell line growth inhibition, 48 h
Active and inactive are the calls of the source. Cut-off read from the data, not from the text of the source: active = GI50 up to about 1.1 µM and inactive = higher.
Assay metric: GI50

Recorded GI50, per entry:
Compound	GI50
COc1ccc(/C=C2\CCC(CCN3CCOCC3)C2=O)cc1 (centres undefined)	> 100 µM (inactive)
CCOC(=O)C1(Br)C(c2ccccc2)NC(=O)NC1(C)Br (centres undefined)	28.9 µM (inactive)
CSCC[C@@H](NC(=O)[C@H](CC(C)C)NC(=O)C(Cc1cnc[nH]1)NC(=O)CNC(=O)[C@@H](NC(=O)[C@H](C)NC(=O)[C@H](Cc1c[nH]c2ccccc12)NC(=O)[C@H](CCC(N)=O)NC(=O)[C@@H](N)CC(N)=O)C(C)C)C(N)=O (some centres undefined)	> 100 µM (inactive)

# input for lookup
Q: Form field: reported GI50 of O=C1C(Cl)N(c2cccc([N+](=O)[O-])c2)C1c1c[nH]c2ccccc12 (centres undefined)
Result: 15.1 µM (inactive)
